tested on: SF-268 CNS; test: NCI tumour cell line growth inhibition, 48 h
Exercise: state measured TGI for each of the molecules provided.

| MOLECULE | RECORDED_METRIC | RESULT |
| --- | --- | --- |
| C=C(CN(C)C)C(=O)c1ccccc1C | TGI | > 100 µM |

Quick request: TGI for each listed item, please.
1. Cc1ccc(S(=O)(=O)OC2CCN(C)CC2)cc1
2. CCNC(=O)[C@@H]1CCCN2C(=O)CC[C@H](NC(=O)[C@H](Cc3ccc(OP(=O)(O)O)cc3)NC(C)=O)C(=O)N12
3. COC1=C2CC(C)CC(OC)C(O)C(C)/C=C(\C)C(OC(N)=O)C(OC)/C=C\C=C(/C)C(=O)NC(=C(C=NC(C)(C)C)C1=O)C2=O (configuration not stated)
4. ClCCCN(CCCCl)c1ccc(C=Nc2cccc(Cl)c2)cc1

> 100 µM
> 25 µM
37.4 µM
> 71.1 µM

Quick request: TGI for each listed item, please.
1. CCCCON(OC(=O)c1ccccc1)C(=O)c1ccccc1
2. Cc1ccc(NC(=O)c2cc3cc(N=Nc4ccc(Br)cc4)ccc3oc2=O)cc1
3. Cc1nc(-c2cccc(Nc3nc(-c4ccc(Cl)cc4)cs3)c2)cs1
4. NC(Cc1ccc(S(=O)(=O)O)cc1)C(=O)NC(CCCCNC(=O)NCCCCC(NC(=O)C(N)Cc1ccc(S(=O)(=O)O)cc1)C(=O)NC(Cc1ccc(S(=O)(=O)O)cc1)C(=O)O)C(=O)NC(Cc1ccc(S(=O)(=O)O)cc1)C(=O)O (configuration not stated)
5. O=c1sc2c(s1)SSSSS2
6. COc1ccc(-c2cc(-c3cc(Cl)ccc3Cl)nc3n[nH]c(N)c23)cc1
7. O=C1[C@@H]2C(c3ccccc3Br)=NO[C@@H]2C(=O)N1c1ccc(Cc2ccc(N3C(=O)[C@H]4C(c5ccccc5Br)=NO[C@H]4C3=O)cc2)cc1
8. C/C(=N\NC(=O)c1sc(=S)n(C)c1N)c1cc2ccccc2o1

> 100 µM
> 100 µM
24.2 µM
> 100 µM
> 50 µM
24.5 µM
> 100 µM
37.4 µM

Quick request: TGI for each listed item, please.
1. CN(C)c1ccc2c(=O)c3ccccc3oc2n1
2. CC1CC(C)C(O)C(C2CC(CC(=O)NC3CCCCC3)CC(=O)O2)C1 (configuration not stated)
3. COc1ccc(OC)c(/C=N/NC(=O)Cc2csc3nc(-c4ccc(Br)cc4)cn23)c1
4. C=C(C)C(=O)O[C@H]1C/C(CO)=C/CCC(=C)C(OC(C)=O)[C@H]2OC(=O)C(=C)[C@H]12 (some centres not stated)
5. CCC1=NC(N/N=C/c2ccco2)=N/C1=C\c1ccccc1O
6. CN(C)CCOc1cccc2c1C(=O)c1ccccc1C2=O
7. CCc1nc(N)nc(N)c1-c1ccc(NCCN)c([N+](=O)[O-])c1
8. CC(C)(C)c1cc(CC2C(=O)c3ccccc3C2=O)cc(C(C)(C)C)c1O

["> 100 µM", "> 100 µM", "> 100 µM", "10.9 µM", "> 100 µM", "27.3 µM", "> 76.3 µM", "17.1 µM"]

Provide measured TGI value, entry: Cc1ccc2c(c1)C(C)Cc1c(ncnc1-n1cnc3ccccc31)N2C (configuration not stated)
17.7 µM

###

Exercise: state measured TGI for each of the molecules provided.
system: MOLT-4 leukemia; experiment: NCI tumour cell line growth inhibition, 48 h

| MOLECULE | RESULT |
| --- | --- |
| O=P1(C(O)/C=C/c2ccccc2)N(Cc2ccccc2)[C@H](c2ccccc2)[C@@H](c2ccccc2)N1Cc1ccccc1 (stereo partly specified) | > 100 µM |
| Cc1cn(Cc2ccccc2CCO)c(=S)[nH]c1=O | > 100 µM |
| Cc1cc2nc(C(C)C(=O)c3ccc(Cl)cc3)c(=O)[nH]c2cc1C (stereo unspecified) | > 100 µM |
| O=C(O)c1cc2ccccc2c(N=Nc2ccccc2)c1O | > 100 µM |
| CC[C@]12CCCN3CCc4c(n(c5ccccc45)C(=O)C1)[C@@H]32 | > 58.2 µM |

Quick request: TGI for each listed item, please.
1. CC(=N\N)/C(C)=N/N=C(C)/C(C)=N/N=C(C)/C(C)=N/N=C(C)/C(C)=N/N
2. CC(=O)OC12/C(=N/O)CCCCCC1c1ccccc12 (stereo unspecified)
3. NC1=NC(=O)/C(=C/c2ccccc2[N+](=O)[O-])C(N)=N1
4. CCNC(=O)[C@@H]1CCCN2C(=O)CC[C@H](NC(=O)[C@H](Cc3ccc(OP(=O)(O)O)cc3)NC(C)=O)C(=O)N12
5. O=C(Nc1ccccc1-c1n[nH]c(=S)[nH]c1=O)C(F)(F)F
6. O=C(CN1CCN(Cc2ccccc2)CC1)c1ccc2[nH]c(=O)oc2c1

["> 100 µM", "> 100 µM", "> 100 µM", "> 25 µM", "> 100 µM", "> 100 µM"]

###

tested on: NCI-H460 lung; experiment: NCI tumour cell line growth inhibition, 48 h
Exercise: state measured TGI for each of the compounds provided.

| COMPOUND | ASSAYED_TARGET | RESULT |
| --- | --- | --- |
| Fc1ccc2[nH]cc(-c3nc(-c4c[nH]c5ncccc45)cs3)c2c1 | NCI-H460 lung | > 100 µM |
| COC(=O)[C@@]12C(=O)C=CC(=O)[C@@H]1C1C(=CC2COC(C)=O)O[C@@H]2OC3(CCCCC3)O[C@H]12 (stereo partly specified) | NCI-H460 lung | 32.9 µM |
| O=C(/C=C/c1ccc(OCCCOc2ccc(/C=C/C(=O)c3ccccc3)cc2)cc1)c1ccccc1 | NCI-H460 lung | > 100 µM |
| O=C(Nc1ccc(Cl)c(Cl)c1)c1cccc(NC2=C(Cl)C(=O)N(Cc3ccccc3)C2=O)c1 | NCI-H460 lung | > 100 µM |

Quick request: TGI for each listed item, please.
1. NCC(=O)NC1(c2cc3ccccc3s2)CCCCC1
2. Cc1c2c(c(C)n1-c1ccccc1)C(=O)N(CCCCN1CCN(c3ccccc3)CC1)C2=O

> 100 µM
47.4 µM

###

system: HOP-62 NSCLC; assay: NCI tumour cell line growth inhibition, 48 h
Exercise: state measured TGI for each of the compounds provided.

Example compounds with recorded TGI:
| COMPOUND | ASSAYED_TARGET | TGI |
| --- | --- | --- |
| CC[C@]1(O)CC(OC2CC(N(C)C)C(O)C(C)O2)c2c(cc3c(c2O)C(=O)c2c(O)cccc2C3=O)[C@@H]1C(=O)OC (stereo partly specified) | HOP-62 NSCLC | 2.14 µM |
| COC(=O)[C@@]12C(=O)C=CC(=O)[C@@H]1C1C(=CC2COC(C)=O)O[C@@H]2OC3(CCCCC3)O[C@H]12 (stereo partly specified) | HOP-62 NSCLC | 35 µM |
| CCc1ccc(N=Cc2cc(OC)c(OC)c(OC)c2)cc1 | HOP-62 NSCLC | > 100 µM |
| Cc1c2cc[n+](C)cc2c(C)c2c1sc1ccccc12 | HOP-62 NSCLC | 1.76 µM |

Quick request: TGI for each listed item, please.
1. Brc1ccc2[nH]cc(-c3csc(-c4ccccn4)n3)c2c1
2. NC(=O)NNCc1ccccc1
3. C=CCn1c(=O)c2ccccc2[n+]2c(C)c(C(=O)OCC)sc12
4. CC1(C)CC23C4COC(=O)C2CCC1C3CC4=O (stereo unspecified)

["> 45.5 µM", "> 100 µM", "> 100 µM", "59.3 µM"]

###

tested on: BT-549 breast; assay: NCI tumour cell line growth inhibition, 48 h
Exercise: state measured TGI for each of the compounds provided.

Example compounds with recorded TGI:
| COMPOUND | RECORDED_METRIC | RESULT |
| --- | --- | --- |
| CCNC(=O)[C@@H]1CCCN2C(=O)CC[C@H](NC(=O)[C@H](Cc3ccc(OP(=O)(O)O)cc3)NC(C)=O)C(=O)N12 | TGI | > 25 µM |
| C/C(CC/C(C)=N/O)=N\O | TGI | > 100 µM |
| CC(=O)OC1=c2ccccc2=C(O)C2C1C=NN2C(C)=O (stereo unspecified) | TGI | > 100 µM |

Quick request: TGI for each listed item, please.
1. CCOC(=O)C1(C(N)=O)C(=O)c2ccncc2C1=O (stereo unspecified)
2. O=C(CN1CCN(Cc2ccccc2)CC1)c1ccc2[nH]c(=O)oc2c1
3. O=c1sc2c(s1)SSSSS2

["> 100 µM", "> 100 µM", "> 50 µM"]

###

tested on: K-562 leukemia; experiment: NCI tumour cell line growth inhibition, 48 h
Exercise: state measured TGI for each of the molecules provided.

| MOLECULE | ASSAYED_TARGET | RECORDED_METRIC | RESULT |
| --- | --- | --- | --- |
| CC(=O)[C@@H]1[C@@H](OC(=O)CCC(C)COC2OC(CO)C(O)C(O)C2O)C[C@H]2[C@@H]3CC=C4C[C@@H](OC5OC(CO)C(OC6OC(C)C(O)C(O)C6O)C(O)C5OC5OC(C)C(O)C(O)C5O)CC[C@]4(C)[C@H]3CC[C@]12C (stereo partly drawn) | K-562 leukemia | TGI | > 100 µM |
| O=C(CN1CCN(Cc2ccccc2)CC1)c1ccc2[nH]c(=O)oc2c1 | K-562 leukemia | TGI | > 100 µM |
| CC1CC[C@]2(C(=O)O)CCC3(COC(=O)/C=C\c4ccc(O)cc4)C(=CCC4[C@@]5(C)CC[C@H](O)C(C)(C)C5CC[C@]43C)[C@@H]2[C@H]1C (stereo partly drawn) | K-562 leukemia | TGI | > 100 µM |
| O=C(O)c1cc2ccccc2c(N=Nc2ccccc2)c1O | K-562 leukemia | TGI | > 100 µM |
| C/C(CC/C(C)=N/O)=N\O | K-562 leukemia | TGI | > 100 µM |

Quick request: TGI for each listed item, please.
1. COc1cccc(C2c3cc4c(cc3OC(C)(N3CCCC3)C2C)OCO4)c1OC (stereo not drawn)
2. COc1cccc2c1C(=O)C=CC2=O
3. COc1ccc(/C=C2\CCCC(CN(C)C)C2=O)cc1 (stereo not drawn)
4. N#Cc1c(N2CCCC2)nsc1NCc1ccccc1

1: 53.1 µM; 2: 4.97 µM; 3: 6.79 µM; 4: > 100 µM

Quick request: TGI for each listed item, please.
1. NC1=NC(=O)/C(=C/c2ccccc2[N+](=O)[O-])C(N)=N1
2. CC(C)(C)OC1=C(OC(C)(C)C)C(O)(c2ccccc2)C1=O (stereo not drawn)
3. CN(C)CCOc1cccc2c1C(=O)c1ccccc1C2=O
4. CCCCON(OC(=O)c1ccccc1)C(=O)c1ccccc1
5. C[N+](C)(C)CC1CCCC/C1=N\OC(=O)c1ccccc1 (stereo not drawn)
6. CCc1nc(N)nc(N)c1-c1ccc(NCCN)c([N+](=O)[O-])c1
7. O=[N+]([O-])c1nc(-c2ccccn2)[nH]c1[N+](=O)[O-]

1. > 100 µM
2. > 100 µM
3. 33.7 µM
4. > 100 µM
5. > 100 µM
6. > 100 µM
7. > 100 µM

Quick request: TGI for each listed item, please.
1. C=CCn1c(=O)c2ccccc2[n+]2c(C)c(C(=O)OCC)sc12
2. O=C1[C@@H]2C(c3ccccc3Br)=NO[C@@H]2C(=O)N1c1ccc(Cc2ccc(N3C(=O)[C@H]4C(c5ccccc5Br)=NO[C@H]4C3=O)cc2)cc1

> 100 µM
> 100 µM
